Biological target: human ACVR2A (human, UniProt P27037 20-135, limits assumed); note: test concentration or dose not given here
Sequence (P27037 20-135 limits assumed): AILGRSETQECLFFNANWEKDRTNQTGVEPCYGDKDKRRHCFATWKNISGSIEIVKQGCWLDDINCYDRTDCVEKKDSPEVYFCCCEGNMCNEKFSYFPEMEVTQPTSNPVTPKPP
Assay: ELISA
Measured optical density, listed per entry for reference.

Check out these entries, answers already filled in.
>>> endpointvalue("374_B09 (antibody, V domains shown, VH/VL only) VH: EVQLLESGGGLVQPGGSLRLSCAASGFTFSSYSMNWVRQAPGKGLEWVSGINYNGGYKSYADSVKGRFTISRDNSKNTLYLQMNSLRAEDTAVYYCARSATWHDTHLDYWGQGTLVTVSS VL: DIQMTQSPSSLSASVGDRVTITCRASQSIVRYLNWYQQKPGKAPKLVIYAATSLASGVPSRFSGSGSGTDFTLTISSLQPEDFATYYCQQSYELPLTFGGGTKVEIK")
"3.62 OD"
>>> endpointvalue("374_D02 (antibody, V domains shown, VH/VL only) VH: EVQLLESGGGLVQPGGSLRLSCAASGFTFDSYSMNWVRQAPGKGLEWVAGINYNSGYTSYADSVKGRFTISRDNSKNTLYLQMNSLRAEDTAVYYCARSATWHDTHLDYWGQGTLVTVSS VL: DIQMTQSPSSLSASVGDRVTITCRASQSISTYVNWYQQKPGKAPKLLIYAVTSLASGVPSRFSGSGSGTDFTLTISSLQPEDFATYYCQQSYDSPLTFGGGTKVEIK")
"3.06 OD"

GET /values?readout=optical density&item= 366_C02 (antibody, V domains shown, VH/VL only) VH: EVQLLESGGGLVQPGGSLRLSCAASGFTFSDYSMNWVRQAPGKGLEWVANINYNGGYTGYADSVKGRFTISRDNSKNTLYLQMNSLRAEDTAVYYCARSATWHDTHLDYWGQGTLVTVSS VL: DIQMTQSPSSLSASVGDRVTITCRASQSIVSYLNWYQQKPGKAPKLLIYAATSRASGVPSRFSGSGSGTDFTLTISSLQPEDFATYYCQQSYDNPLTFGGGTKVEIK
3.03 OD

Where these numbers come from: patent US20210380703A1
